variant/HC_K99L for assorted binders
Biological target: T1, mouse tissue factor pathway inhibitor (TFPI) (mouse, UniProt O54819 29-289, limits assumed)
T1 construct: bought; also called mTFPI; murine TFPI
T1 sequence (looked up): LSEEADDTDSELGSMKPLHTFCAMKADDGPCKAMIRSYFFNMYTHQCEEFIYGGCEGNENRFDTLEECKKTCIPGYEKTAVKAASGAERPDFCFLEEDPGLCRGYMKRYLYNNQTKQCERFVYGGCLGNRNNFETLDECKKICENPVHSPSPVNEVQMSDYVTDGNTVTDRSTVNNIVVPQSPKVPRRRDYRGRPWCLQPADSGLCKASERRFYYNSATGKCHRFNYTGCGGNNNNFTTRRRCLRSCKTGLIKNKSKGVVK
Assay: competitive ELISA
I only need the number, in ratio, no unit after it.

binder="2A8 HC R30S+S35D+S55R+K99L/LC Y48F+N51V+D91W (Fab, V domains shown) VH: QVQLVESGGGLVQPGGSLRLSCAASGFTFSSYGMDWVRQAPGKGLEWVSSIRGSRSSTYYADSVKGRFTISRDNSKNTLYLQMNSLRAEDTAVYYCARLYRYWFDYWGQGTLVTVSS VL: DIELTQPPSVSVAPGQTARISCSGDNLRNYYAHWYQQKPGQAPVVVIFYDVNRPSGIPERFSGSNSGNTATLTISGTQAEDEADYYCQSWWDGVPVFGGGTKLTVLG" property_measured=variant/HC_K99L unit_of_measure=ratio numeric_value=19.1

Switching to the query record.
Look up variant/HC_K99L of 2A8 HC S35D+K99L/LC Y48F+D91L+P95V+V96W (Fab, V domains shown) VH: QVQLVESGGGLVQPGGSLRLSCAASGFTFRSYGMDWVRQAPGKGLEWVSSIRGSSSSTYYADSVKGRFTISRDNSKNTLYLQMNSLRAEDTAVYYCARLYRYWFDYWGQGTLVTVSS VL: DIELTQPPSVSVAPGQTARISCSGDNLRNYYAHWYQQKPGQAPVVVIFYDNNRPSGIPERFSGSNSGNTATLTISGTQAEDEADYYCQSWLDGVVWFGGGTKLTVLG and report it.
13.6
